- System: ER (Homo sapiens)
- Construct: host or cells: T47D and MCF7 human breast cancer cells
- Measurement Notes: ER degradation activity, in-cell western blot analysis in T47D cells
- Assay type: cell-based
- Recorded Conditions: 16 hours, Table A does not say which cell line (T47D or MCF7), read-out: Potency (DC50)
- Method: ER degradation activity was evaluated in the human breast cancer cell line T47D and MCF7 purchased from the American Type Culture Collection (ATCC), Manassas, VA, and maintained and cultured in Dulbecco's Modified Eagle's medium (DMEM) containing 10% fetal bovine serum, 1 unit/ml of penicillin and 1 μg/ml of streptomycin. […]
Value Kind: DC50

Solved entries (count: 4):
C[C@@H]1Cc2cc(O)ccc2[C@@H](c2c(F)cc(N3CCC4(CCN(CC(=O)N5Cc6cc7c(cc6C5)C(=O)N(C5CCC(=O)NC5=O)C7)C4)CC3)cc2F)N1CC(C)(F)F (some centres unmarked): 10 to 100 nM
O=C1CCC(N2C(=O)c3cc4c(cc3C2=O)CN(CC2CN(CC3CCN(c5ccc([C@@H]6c7ccc(O)cc7CC[C@@H]6c6ccccc6)cc5)CC3)C2)C4)C(=O)N1 (some centres unmarked): > 100 nM
O=C1CCC(N2C(=O)c3cc4c(cc3C2=O)CN(C2CCC(C(=O)N3CCCC(Oc5ccc([C@@H]6c7ccc(O)cc7CC[C@@H]6c6ccccc6)cc5)C3)CC2)C4)C(=O)N1 (mixture of isomers): 10 to 100 nM
O=C1CCC(N2Cc3cc4c(cc3C2=O)CN(C2CCN(CC3CN(c5ccc([C@@H]6c7ccc(O)cc7CC[C@@H]6c6ccccc6)cc5)C3)CC2)C4)C(=O)N1 (some centres unmarked): > 100 nM

Moving on to the next compound.
The compound listed as C[C@@H]1Cc2c([nH]c3ccccc23)[C@@H](c2c(F)cc(N3CCC(N4CCC(CN5Cc6cc7c(cc6C5)C(=O)N(C5CCC(=O)NC5=O)C7)CC4)CC3)cc2F)N1CC(F)F (some centres unmarked) shows DC50 equal to 10 to 100 nM
